assay: Nitric oxide (NO) scavenging assay; type: biochemical
Form field: IC50 (NO scavenging) (one value per entry).
quantity.name: IC50 (NO scavenging) (µg/mL)

INSERT INTO assay_data (compound, quantity_name, endpoint_result) VALUES
  ('O=Cc1cc(-c2ccc(F)c(Cl)c2)cs1 [2i]', 'IC50 (NO scavenging)', 46.1),
  ('O=Cc1cc(-c2ccccc2)cs1 [2a, 4-Phenylthiophene-2-carbaldehyde]', 'IC50 (NO scavenging)', 92.5),
  ('N#Cc1cc(-c2csc(C=O)c2)cc(C(F)(F)F)c1 [2d]', 'IC50 (NO scavenging)', 45.6),
  ('Cc1ccc(-c2csc(C=O)c2)s1 [2j, 5-Methyl-2,3-bisthiophene-5-carbaldehyde]', 'IC50 (NO scavenging)', 49.3),
  ('O=Cc1cc(-c2ccc(Cl)s2)cs1 [2c]', 'IC50 (NO scavenging)', 83.3),
  ('O=Cc1cc(-c2cc(C(F)(F)F)cc(C(F)(F)F)c2)cs1 [2b]', 'IC50 (NO scavenging)', 66.6);
